Procedure Summary: Elimination half life in human liver microsomes by HPLC/MS analysis
Type: ADME, Microsome
Setup Conditions: read-out: beta t1/2
Quantity Name: half-life (min)

Example compounds with recorded half-life:
- Compound: "CCC(=O)NCCCc1cc(OC)ccc1OCc1cccc(OC)c1"
  Value Measured: 5.5
- Compound: "CCC(=O)NCCCc1cc(OC)ccc1-c1cccc(OC)c1"
  Value Measured: 5.3
- Compound: "CCC(=O)NCCCc1cc(OC)ccc1CCc1cccc(OC)c1"
  Value Measured: 5.1
- Compound: "COc1ccc2[nH]cc(CCNC(C)=O)c2c1 [MELATONIN]"
  Value Measured: 73.2

P. CCC(=O)NCCCc1cc(OC)ccc1Cc1cccc(OC)c1
Q. CCC(=O)NCCCc1cc(OC)ccc1C#Cc1cccc(OC)c1
// query Would you mind telling me which has the lower recorded half-life between P and Q ? Kindly give the label for the entry you pick.
// result P
(P: 6 min, Q: 18.3 min)

----------
Procedure Summary: Intrinsic clearance in rat liver microsomes after 30 mins by HPLC/MS analysis
Format: ADME, Microsome
Setup Conditions: read-out: CLH
Quantity Name: CLint scaled (mL/min/kg)

Here are 3 compounds together with their reported answers.
- Chemical Structure: "CCC(=O)NCCCc1cc(OC)ccc1-c1cccc(OC)c1"
  Unit: "mL/min/kg"
  CLint scaled: 333
- Chemical Structure: "CCC(=O)NCCCc1cc(OC)ccc1OCc1cccc(OC)c1"
  Unit: "mL/min/kg"
  CLint scaled: 262
- Chemical Structure: "CCC(=O)NCCCc1cc(OC)ccc1Cc1cccc(OC)c1"
  Unit: "mL/min/kg"
  CLint scaled: 290

P. CCC(=O)NCCCc1cc(OC)ccc1CCc1cccc(OC)c1
Q. COc1ccc2[nH]cc(CCNC(C)=O)c2c1
R. CCC(=O)NCCCc1cc(OC)ccc1C#Cc1cccc(OC)c1
// query Rank items: key CLint scaled, increasing. Form field (ranking): labels in requested order.
// result Q, R, P
(Q: 33.1 mL/min/kg, R: 115 mL/min/kg, P: 301 mL/min/kg)

----------
Procedure Summary: Intrinsic clearance in human liver microsomes after 30 mins by HPLC/MS analysis
Format: ADME, Microsome
Setup Conditions: read-out: CLH
Quantity Name: CLint scaled (mL/min/kg)

Completed entries (count: 4):
- Compound: "CCC(=O)NCCCc1cc(OC)ccc1CCc1cccc(OC)c1"
  Unit: "mL/min/kg"
  CLint scaled: 367
- Compound: "CCC(=O)NCCCc1cc(OC)ccc1C#Cc1cccc(OC)c1"
  Unit: "mL/min/kg"
  CLint scaled: 102
- Compound: "CCC(=O)NCCCc1cc(OC)ccc1-c1cccc(OC)c1"
  Unit: "mL/min/kg"
  CLint scaled: 353
- Compound: "CCC(=O)NCCCc1cc(OC)ccc1Cc1cccc(OC)c1"
  Unit: "mL/min/kg"
  CLint scaled: 312

P. COc1ccc2[nH]cc(CCNC(C)=O)c2c1 [MELATONIN]
Q. CCC(=O)NCCCc1cc(OC)ccc1OCc1cccc(OC)c1
// query When their CLint scaled values are compared, which is larger, P or Q ? Give the chosen item's label as your response.
// result Q

----------
Tested on: Liver microsomes
Procedure Summary: Drug metabolism in human liver microsomes assessed as C3-demethylation after 30 mins by LC-UV/MS analysis
Type: ADME, Microsome
Setup Conditions: 0.5 h

- Chemical Structure: "CCC(=O)NCCCc1cc(OC)ccc1CCc1cccc(OC)c1"
  Drug metabolism: "Active"
- Chemical Structure: "CCC(=O)NCCCc1cc(OC)ccc1C#Cc1cccc(OC)c1"
  Drug metabolism: "Active"
- Chemical Structure: "CCC(=O)NCCCc1cc(OC)ccc1Cc1cccc(OC)c1"
  Drug metabolism: "Active"
- Chemical Structure: "CCC(=O)NCCCc1cc(OC)ccc1-c1cccc(OC)c1"
  Drug metabolism: "Active"

----------
Species: Homo sapiens
Procedure Summary: Selectivity ratio of EC50 for human MT1 receptor to EC50 for human MT2 receptor
Quantity Name: Ratio EC50

- Chemical Structure: "CCC(=O)NCCCc1cc(OC)ccc1-c1cccc(OC)c1"
  Quantity Name: "Ratio EC50"
  Value Measured: 14

I. CCC(=O)NCCCc1cc(OC)ccc1OCc1cccc(OC)c1
II. CCC(=O)NCCCc1cc(OC)ccc1C#Cc1cccc(OC)c1
III. CCC(=O)NCCCc1cc(OC)ccc1CCc1cccc(OC)c1
// query Rank by Ratio EC50 (largest to smallest). Give your ranking as a list of the labels in the requested order.
// result III, I, II

----------
Study System: Melatonin receptor type 1B (Homo sapiens, UniProt P49286)
Sequence (P49286 whole entry): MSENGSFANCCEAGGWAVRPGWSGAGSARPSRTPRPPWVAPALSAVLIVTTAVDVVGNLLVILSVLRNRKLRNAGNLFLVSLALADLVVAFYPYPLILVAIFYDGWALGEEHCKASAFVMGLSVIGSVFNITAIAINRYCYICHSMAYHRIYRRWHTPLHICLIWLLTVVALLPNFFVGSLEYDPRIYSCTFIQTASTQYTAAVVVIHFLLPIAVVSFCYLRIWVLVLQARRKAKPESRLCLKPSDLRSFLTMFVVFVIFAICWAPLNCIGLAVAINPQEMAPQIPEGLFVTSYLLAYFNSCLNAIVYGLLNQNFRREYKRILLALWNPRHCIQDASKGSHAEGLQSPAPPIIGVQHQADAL
Procedure Summary: Agonist activity at human MT2 receptor expressed in CHO cells coexpressing Galpha protein 16z25 assessed as increase in calcium mobilization measured for 3 mins by FLIPR assay
pEC50: −log10 of the molar value.
Quantity Name: pEC50

- Chemical Structure: "CCC(=O)NCCCc1cc(OC)ccc1Cc1cccc(OC)c1"
  pEC50: 9.62

P. CCC(=O)NCCCc1cc(OC)ccc1C#Cc1cccc(OC)c1
Q. CCC(=O)NCCCc1cc(OC)ccc1-c1cccc(OC)c1
// query Between the two listed entries P and Q , which has its pEC50 at the higher number? When you have decided, please share the label of that item.
// result P
(P: 9.96, Q: 9.70)

1. CCC(=O)NCCCc1cc(OC)ccc1CCc1cccc(OC)c1
2. CCC(=O)NCCCc1cc(OC)ccc1OCc1cccc(OC)c1
// query For 1 and 2 , which recorded pEC50 is lower? # answer = label of selected item
// result 2
(2: 10.30, 1: 10.62)

----------
Study System: Melatonin receptor type 1A (Homo sapiens, UniProt P48039)
Sequence (P48039 whole entry): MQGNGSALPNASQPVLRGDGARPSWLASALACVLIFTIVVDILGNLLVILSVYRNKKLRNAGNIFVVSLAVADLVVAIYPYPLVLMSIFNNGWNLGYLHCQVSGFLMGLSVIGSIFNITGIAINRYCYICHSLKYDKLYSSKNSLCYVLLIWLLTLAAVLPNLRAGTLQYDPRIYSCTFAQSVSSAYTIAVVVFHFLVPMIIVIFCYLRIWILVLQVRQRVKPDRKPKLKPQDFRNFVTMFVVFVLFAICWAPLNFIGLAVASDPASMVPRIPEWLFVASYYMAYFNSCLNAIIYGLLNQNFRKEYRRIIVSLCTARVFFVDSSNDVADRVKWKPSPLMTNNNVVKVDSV
Procedure Summary: Agonist activity at human MT1 receptor expressed in CHO cells coexpressing Galpha protein 16z25 assessed as increase in calcium mobilization measured for 3 mins by FLIPR assay
Quantity Name: EC50 (nM)

1. CCC(=O)NCCCc1cc(OC)ccc1OCc1cccc(OC)c1
2. CCC(=O)NCCCc1cc(OC)ccc1-c1cccc(OC)c1
3. CCC(=O)NCCCc1cc(OC)ccc1Cc1cccc(OC)c1
4. CCC(=O)NCCCc1cc(OC)ccc1CCc1cccc(OC)c1
// query Write the entries in order, lowest recorded EC50 first. Labels, ranked as asked.
// result 2, 1, 4, 3

----------
Species on record: Homo sapiens
Procedure Summary: Selectivity ratio of Ki for human MT1 receptor to Ki for human MT2 receptor
Quantity Name: Ratio Ki

- Chemical Structure: "CCC(=O)NCCCc1cc(OC)ccc1C#Cc1cccc(OC)c1"
  Value Measured: 527
- Chemical Structure: "CCC(=O)NCCCc1cc(OC)ccc1CCc1cccc(OC)c1"
  Value Measured: 40
- Chemical Structure: "CCC(=O)NCCCc1cc(OC)ccc1Cc1cccc(OC)c1"
  Value Measured: 12

1. CCC(=O)NCCCc1cc(OC)ccc1-c1cccc(OC)c1
2. CCC(=O)NCCCc1cc(OC)ccc1OCc1cccc(OC)c1
// query Ratio Ki comparison. Which is larger, 1 or 2 ? Give the label under which the chosen entry appears.
// result 2

----------
Procedure Summary: Elimination half life in rat liver microsomes by HPLC/MS analysis
Type: ADME, Microsome
Setup Conditions: read-out: beta t1/2
Quantity Name: half-life (min)

The examples below pair each entry with its known result.
- Chemical Structure: "CCC(=O)NCCCc1cc(OC)ccc1-c1cccc(OC)c1"
  half-life, min: 7.5
- Chemical Structure: "CCC(=O)NCCCc1cc(OC)ccc1CCc1cccc(OC)c1"
  half-life, min: 8.3
- Chemical Structure: "CCC(=O)NCCCc1cc(OC)ccc1OCc1cccc(OC)c1"
  half-life, min: 9.5

I. CCC(=O)NCCCc1cc(OC)ccc1Cc1cccc(OC)c1
II. CCC(=O)NCCCc1cc(OC)ccc1C#Cc1cccc(OC)c1
III. COc1ccc2[nH]cc(CCNC(C)=O)c2c1
// query Could you please order the items by half-life, going from the lowest number to the highest? List the labels, following the order given in the request.
// result I, II, III
(I: 8.6 min, II: 21.7 min, III: 75.3 min)

----------
Study System: Melatonin receptor type 1B (Homo sapiens)
pKi: −log10 of the molar value.
Quantity Name: pKi

I. CCC(=O)NCCCc1cc(OC)ccc1OCc1cccc(OC)c1
II. CCC(=O)NCCCc1cc(OC)ccc1C#Cc1cccc(OC)c1
III. CCC(=O)NCCCc1cc(OC)ccc1Cc1cccc(OC)c1
// query Re-order the entries listed above so their pKi values fall from first to last. Ranked list of labels, please, in the requested order.
// result II, I, III
(II: 10.14, I: 9.54, III: 8.47)
